The values you see were collected from the supplement of paper PMC10567573.

B1: TRAF3IP2 (parent)
chain: PGQPLPGASVRGLHPVQKVILNYP

variants of: B1; experiment: protein stability index of a GFP-peptide fusion (GPS, HEK-293T) (PSI 1-6); higher = more stable; conditions: c terminus: a fixed tail appended;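 also: lentivirally expressed fusions sorted by FACS into six bins by GFP to DsRed ratio, PSI derived from sequencing read proportions per bin multiplied by bin number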
Outcome: met for protein stability index of at least 3; not met for anything lower.

# example entries with known answers
INSERT INTO assay_data (mutation_list, class_name) VALUES
  ('P6E', 'met'),
  ('Y23R', 'met'),
  ('Q17P', 'met'),
  ('Q17N', 'not met'),
  ('P4G', 'not met'),
  ('A8T', 'met'),
  ('L21Y', 'met'),
  ('P1V', 'met');

Hi, just wondering whether "Q3E" shows protein stability index of 3 or higher.
met

Determine whether this variant has protein stability index no lower than 3: "Y23M"
met
